FYI, the data here is from paper PMC6189524.

test: Human bioavailability study: 24 h urinary excretion; type: in vivo; conditions: humans, after 461 g vegetable meal; per mg intake of corresponding compound
Reported 24 h urinary excretion, Vegetable meal values follow for various molecules
All answers are understood in nmol/mg intake, so give the number only.

So for O=c1c(OS(=O)(=O)O)c(-c2ccc(O)c(O)c2)oc2cc(O)cc(O)c12 [Quercetin-3-sulfate] , the logged 24 h urinary excretion, Vegetable meal turned out to be 3.36

For record `O=c1c(O)c(-c2ccc(O)c(O)c2)oc2cc(O)cc(O)c12` the listed 24 h urinary excretion, Vegetable meal is 0.72

Looking up O=c1cc(-c2ccc(O)cc2)oc2cc(O[C@@H]3O[C@H](CO)[C@@H](O)[C@H](O)[C@H]3O)cc(O)c12 [A-7-Glc, apigenin-7-O-glucoside] , I found its 24 h urinary excretion, Vegetable meal recorded as 0.21
